Tested on: NCI-H838
Test: relative viability (nuclei count vs DMSO), 5 days (fraction); higher = more cells survive
Conditions: first compound 0.5 µM
Below, each entry is listed alongside its reported relative viability.
Enter the number alone.

[
  {
    "COMPOUND": "COc1cc2nccc(Oc3ccc(NC(=O)Nc4cc(C)on4)c(Cl)c3)c2cc1OC [Tivozanib] + Cc1cc(Nc2cc(N3CCN(C)CC3)nc(Sc3ccc(NC(=O)C4CC4)cc3)n2)n[nH]1 [Tozasertib] (partner 0.1 µM)",
    "TEST_VALUE": 0.291
  }
]

Problem: Can you look up the measured relative viability of Nc1ccn([C@@H]2O[C@H](CO)[C@@H](O)[C@@H]2O)c(=O)n1 [Cytarabine] + N=C(N)NC(=N)NCCc1ccccc1 [Phenformin] (partner 250 µM) for me?
Solution: 0.201

Problem: Can you look up the measured relative viability of COc1cc2nccc(Oc3ccc(NC(=O)Nc4cc(C)on4)c(Cl)c3)c2cc1OC [Tivozanib] + O=C(CCCCCCC(=O)Nc1ccccc1)NO [Vorinostat] (partner 1 µM) for me?
Solution: 0.696

###

Below, each entry is listed alongside its reported relative viability.
Tested on: PC-3 [JPC-3]
Assay: relative viability (nuclei count vs DMSO), 5 days (fraction); higher = more cells survive
Details: first compound 0.05 µM
Enter the number alone.

[
  {
    "COMPOUND": "COc1cc2nccc(Oc3ccc(NC(=O)Nc4cc(C)on4)c(Cl)c3)c2cc1OC [Tivozanib] + CC(=O)Nc1cccc(-n2c(=O)n(C3CC3)c(=O)c3c(Nc4ccc(I)cc4F)n(C)c(=O)c(C)c32)c1 [Trametinib] (partner 0.02 µM)",
    "relative viability": 0.807
  },
  {
    "COMPOUND": "COc1cc2nccc(Oc3ccc(NC(=O)Nc4cc(C)on4)c(Cl)c3)c2cc1OC [Tivozanib] + C[C@]1(O)C[C@@H](c2nc(-c3ccc4ccc(-c5ccccc5)nc4c3)c3c(N)nccn32)C1 [Linsitinib] (partner 1 µM)",
    "relative viability": 1
  },
  {
    "COMPOUND": "COc1cc2nccc(Oc3ccc(NC(=O)Nc4cc(C)on4)c(Cl)c3)c2cc1OC [Tivozanib] + CCNC(=O)c1noc(-c2cc(C(C)C)c(O)cc2O)c1-c1ccc(CN2CCOCC2)cc1 [Luminespib] (partner 0.01 µM)",
    "relative viability": 0.751
  },
  {
    "COMPOUND": "COc1cc2nccc(Oc3ccc(NC(=O)Nc4cc(C)on4)c(Cl)c3)c2cc1OC [Tivozanib] + Cc1nc(NC(=O)N2CCC[C@H]2C(N)=O)sc1-c1ccnc(C(C)(C)C(F)(F)F)c1 [Alpelisib] (partner 2 µM)",
    "relative viability": 1.15
  },
  {
    "COMPOUND": "Nc1ccn([C@@H]2O[C@H](CO)[C@@H](O)[C@@H]2O)c(=O)n1 [Cytarabine] + CC(=O)Nc1cccc(-n2c(=O)n(C3CC3)c(=O)c3c(Nc4ccc(I)cc4F)n(C)c(=O)c(C)c32)c1 [Trametinib] (partner 0.02 µM)",
    "relative viability": 0.589
  }
]

Problem: Can you look up the measured relative viability of Nc1ccn([C@@H]2O[C@H](CO)[C@@H](O)[C@@H]2O)c(=O)n1 [Cytarabine] + Nc1nc2[nH]cc(CCc3ccc(C(=O)N[C@@H](CCC(=O)O)C(=O)O)cc3)c2c(=O)[nH]1 [Pemetrexed] (partner 0.2 µM) for me?
Solution: 0.616

Problem: Can you look up the measured relative viability of COc1cc2nccc(Oc3ccc(NC(=O)Nc4cc(C)on4)c(Cl)c3)c2cc1OC [Tivozanib] + O=C(c1cc(Cc2n[nH]c(=O)c3ccccc23)ccc1F)N1CCN(C(=O)C2CC2)CC1 [Olaparib] (partner 8 µM) for me?
Solution: 1.11

Problem: Can you look up the measured relative viability of COc1cc2nccc(Oc3ccc(NC(=O)Nc4cc(C)on4)c(Cl)c3)c2cc1OC [Tivozanib] + CC(C)C[C@H](NC(=O)[C@H](Cc1ccccc1)NC(=O)c1cnccn1)B(O)O [Bortezomib] (partner 0.002 µM) for me?
Solution: 0.847

Problem: Can you look up the measured relative viability of COc1cc2nccc(Oc3ccc(NC(=O)Nc4cc(C)on4)c(Cl)c3)c2cc1OC [Tivozanib] + Nc1ncn([C@H]2C[C@H](O)[C@@H](CO)O2)c(=O)n1 [Decitabine] (partner 2 µM) for me?
Solution: 0.805
